Test system: 616215-338-R-J1-PDC complex spheroid viability;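 further: spheroids exposed to agents for seven days before viability readout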
Assay: Anticancer human tumor 616215-338-R-J1-PDC patient-derived colon adenocarcinoma cell line growth inhibition [RAS]
Details: curve of first compound; second compound 0.3 µM
Text: RAS pathway inhibitors in Combinations in Complex Spheroids A high-throughput screen of multi-cell type tumor spheroids was designed to identify active combinations of RAS pathway inhibitors and targeted small molecules. Complex spheroids include a stromal component modeled by human endothelial cells (HUVEC) and fibroblasts modeled by human mesenchymal stem cells (MSCs). […] Compounds. […] If the clinical Cmax for an agent had not been determined, the highest concentration tested was 10 microM. […]
Task for the reader: assign each of the following compounds its reported IC50.

C=CC(=O)N1CCN(c2nc(OCC3CCCN3C)nc3c(F)c(-c4nc(N)cc(C)c4C(F)(F)F)c(Cl)cc23)C(C)C1 (centres undefined) + CCn1c(-c2cc(N3CCN(C)CC3)cnc2C(C)OC)c2c3cc(ccc31)-c1csc(n1)CC(NC(=O)C1CC1C)C(=O)N1CCCC(N1)C(=O)OCC(C)(C)C2
< 3.16 nM
O=C(c1ccc(F)c(F)c1Nc1ccc(I)cc1F)N1CC(O)([C@@H]2CCCCN2)C1 + CCn1c(-c2cc(N3CCN(C)CC3)cnc2C(C)OC)c2c3cc(ccc31)-c1csc(n1)CC(NC(=O)C1CC1C)C(=O)N1CCCC(N1)C(=O)OCC(C)(C)C2
< 3.16 nM
CCC(CC)c1cc(NC2CCC(N)C2)n2nccc2n1 (centres undefined) + CCn1c(-c2cc(N3CCN(C)CC3)cnc2C(C)OC)c2c3cc(ccc31)-c1csc(n1)CC(NC(=O)C1CC1C)C(=O)N1CCCC(N1)C(=O)OCC(C)(C)C2
< 31.6 nM
CC(Nc1ccc2c(c1)OCCn1cc(N3C(=O)OCC3C(F)F)nc1-2)C(N)=O (centres undefined) + CCn1c(-c2cccnc2C(C)OC)c2c3cc(ccc31)N1CCOC(CC(NC(=O)C(C(C)C)N(C)C(=O)C3(F)CCN(C(=O)C#CC(C)(C)N(C)C)CC3)C(=O)N3CCCC(N3)C(=O)OCC(C)(C)C2)C1
9650 nM
NC1c2ccccc2OC12CCN(c1cnc3c(N4CCCc5ncccc54)n[nH]c3n1)CC2 (centres undefined) + CCn1c(-c2cc(N3CCN(C)CC3)cnc2C(C)OC)c2c3cc(ccc31)-c1csc(n1)CC(NC(=O)C1CC1C)C(=O)N1CCCC(N1)C(=O)OCC(C)(C)C2
< 31.6 nM

State the recorded IC50 for every item in the following list.
1. CCN1CCN(Cc2ccc(Nc3ncc(F)c(-c4cc(F)c5nc(C)n(C(C)C)c5c4)n3)nc2)CC1 + CCn1c(-c2cccnc2C(C)OC)c2c3cc(ccc31)N1CCOC(CC(NC(=O)C(C(C)C)N(C)C(=O)C3(F)CCN(C(=O)C#CC(C)(C)N(C)C)CC3)C(=O)N3CCCC(N3)C(=O)OCC(C)(C)C2)C1
2. CC(C)NCC(C(=O)N1CCN(c2ncnc3c2C(C)CC3O)CC1)c1ccc(Cl)cc1 (centres undefined) + CCn1c(-c2cc(N3CCN(C)CC3)cnc2C(C)OC)c2c3cc(ccc31)-c1csc(n1)CC(NC(=O)C1CC1C)C(=O)N1CCCC(N1)C(=O)OCC(C)(C)C2
3. CCN1CCN(Cc2ccc(Nc3ncc(F)c(-c4cc(F)c5nc(C)n(C(C)C)c5c4)n3)nc2)CC1 + CCn1c(-c2cc(N3CCN(C)CC3)cnc2C(C)OC)c2c3cc(ccc31)-c1csc(n1)CC(NC(=O)C1CC1C)C(=O)N1CCCC(N1)C(=O)OCC(C)(C)C2
4. CCC(CC)c1cc(NC2CCC(N)C2)n2nccc2n1 (centres undefined) + CCn1c(-c2cccnc2C(C)OC)c2c3cc(ccc31)N1CCOC(CC(NC(=O)C(C(C)C)N(C)C(=O)C3(F)CCN(C(=O)C#CC(C)(C)N(C)C)CC3)C(=O)N3CCCC(N3)C(=O)OCC(C)(C)C2)C1

["930 nM", "< 31.6 nM", "< 3.16 nM", "1570 nM"]
